target: Mu-type opioid receptor (Homo sapiens)
Sequence (P35372 whole entry): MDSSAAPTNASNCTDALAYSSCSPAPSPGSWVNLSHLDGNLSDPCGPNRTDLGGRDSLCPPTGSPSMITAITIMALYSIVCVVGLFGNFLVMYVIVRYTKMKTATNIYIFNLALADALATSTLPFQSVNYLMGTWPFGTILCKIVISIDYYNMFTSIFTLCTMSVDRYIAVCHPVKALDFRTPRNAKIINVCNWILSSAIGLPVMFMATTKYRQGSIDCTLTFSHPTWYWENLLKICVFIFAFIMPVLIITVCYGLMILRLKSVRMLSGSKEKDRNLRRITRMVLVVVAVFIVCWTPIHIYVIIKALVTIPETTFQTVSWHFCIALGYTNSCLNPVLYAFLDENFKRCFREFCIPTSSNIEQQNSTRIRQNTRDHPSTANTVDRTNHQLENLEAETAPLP
pKi: −log10 of the molar value.
measurement.type: pKi

- input.smiles: "C[C@H]1CN(C)CC[C@@]1(C)c1cccc(O)c1"
  measurement.type: "pKi"
  assay.value: 7.10

====

molecular target: Kappa-type opioid receptor (Cavia porcellus, UniProt P41144); experiment: Binding activity against kOpioid receptor kappa 1 using [3H]U-69593 as radioligand in guinea pig membranes.; format: cell membranes
Sequence (P41144 whole entry): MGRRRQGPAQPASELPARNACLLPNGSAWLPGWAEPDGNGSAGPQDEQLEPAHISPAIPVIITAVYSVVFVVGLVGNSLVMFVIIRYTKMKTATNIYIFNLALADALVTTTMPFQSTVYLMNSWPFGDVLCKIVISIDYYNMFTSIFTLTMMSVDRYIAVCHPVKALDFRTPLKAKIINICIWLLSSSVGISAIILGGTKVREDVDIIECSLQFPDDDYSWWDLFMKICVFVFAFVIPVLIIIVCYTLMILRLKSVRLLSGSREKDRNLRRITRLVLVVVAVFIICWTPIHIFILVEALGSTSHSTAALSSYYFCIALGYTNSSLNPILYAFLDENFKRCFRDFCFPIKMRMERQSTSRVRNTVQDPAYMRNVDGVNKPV
pKi: −log10 of the molar value.

- compound: "C[C@H]1C2CCCC1(c1cccc(O)c1)CCN2CCc1ccccc1 (stereo partly specified)"
  pKi: 7.84

====

molecular target: Delta-type opioid receptor (Rattus norvegicus, UniProt P33533); assay: Binding activity against Opioid receptor delta 1 using [3H]DADLE as radioligand in rat brain membranes.
Sequence (P33533 whole entry): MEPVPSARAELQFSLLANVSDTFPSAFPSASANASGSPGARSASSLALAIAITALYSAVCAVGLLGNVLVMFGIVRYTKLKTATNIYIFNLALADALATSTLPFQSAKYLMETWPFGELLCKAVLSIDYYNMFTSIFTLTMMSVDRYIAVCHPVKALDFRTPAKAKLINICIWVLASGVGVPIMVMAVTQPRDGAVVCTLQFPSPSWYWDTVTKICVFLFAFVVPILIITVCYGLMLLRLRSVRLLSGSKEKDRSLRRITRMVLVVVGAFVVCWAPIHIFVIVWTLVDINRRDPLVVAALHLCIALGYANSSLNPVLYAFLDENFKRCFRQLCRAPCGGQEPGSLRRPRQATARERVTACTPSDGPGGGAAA
pKi: −log10 of the molar value.
measurement.type: pKi

- molecule: "C[C@H]1C2CCCC1(c1cccc(O)c1)CCN2CCc1ccccc1 (some centres not stated)"
  measurement.type: "pKi"
  result.operator: "="
  assay.value: 6.57
- molecule: "C[C@H]1C2CCCC1(c1cccc(O)c1)CCN2C (some centres not stated)"
  measurement.type: "pKi"
  result.operator: "<"
  assay.value: 5.00

====

target: Kappa-type opioid receptor (Cavia porcellus); assay: Inhibition of [35S]GTP-gamma-S, binding in guinea pig caudate stimulated by U69,593 in Opioid receptor kappa 1; format: functional
pKi: −log10 of the molar value.
Consider the following compounds and their measured pKi readings.
measurement.type: pKi

- compound: "C[C@H]1C2CCCC1(c1cccc(O)c1)CCN2C (some centres not stated)"
  measurement.type: "pKi"
  assay.value: 6.98
- compound: "C[C@H]1C2CCCC1(c1cccc(O)c1)CCN2CCc1ccccc1 (some centres not stated)"
  measurement.type: "pKi"
  assay.value: 8.87
